Tested on: SNB-75 CNS
test.method.notes: NCI-60 one-dose screen, 48 h (100 = growth as untreated, 0 = no growth, -100 = all killed)
condition: 10 µM unless noted
About 83,000 compounds went through this panel and 20% of them were active in at least one assay; those are over-represented in the sample as a whole.
Exercise: state measured growth for each of the molecules provided.
One number for each entry, in %.

Sample records with growth:
O=C(NCCc1ccccn1)OCc1nc2nc(Cl)nc(N3CCOCC3)c2[nH]1 = 2.59
c1ccc(Cn2nc3c(c2-c2ccccc2)-c2oncc2CC3)cc1 = 84.6
COc1ccc(-c2nc(N/N=C/c3c[nH]c4ccccc34)nc(N3CCOCC3)c2C#N)cc1 = 61.6
O=C(Cc1ccc(/C=C/C(=O)c2ncc[nH]2)cc1)Nc1ccc(C(F)(F)F)cc1 = 43.6
O=c1[nH]nc(-c2ccc(Br)cc2)cc1Cc1ccc(O)cc1 = 91.9

Look up growth for the entries below, preserving their order.
1. O=C1/C(=C\c2cn(Cc3ccccc3)c3ccc(Br)cc23)c2ccccc2N1c1c(Cl)cccc1Cl
2. CC(=O)Nc1ccc(S(=O)(=O)NC2CCCCC2)cc1

Result:
1. 76.4
2. 86.3

====

System: RPMI-8226 leukemia
test.method.notes: NCI-60 one-dose screen, 48 h (100 = growth as untreated, 0 = no growth, -100 = all killed)
condition: 10 µM unless noted
This is part of a sample that, as a whole, favours compounds with a hit. Of some 83,000 tested, about 20% had one in any assay.
For each of the compounds below, state its growth.
Numbers only, in %.

Sample answers from the record:
C=C1C(=O)O[C@H]2[C@H]1CC/C(COC(=O)CCCCCC(=O)OC/C1=C/CC[C@@]3(C)O[C@H]3[C@H]3OC(=O)C(=C)[C@@H]3CC1)=C\CC[C@@]1(C)O[C@@H]21 = 1.08
COc1ccccc1OCC(=O)N1CCCCCC1 = 101
C[C@H]1[C@H](C)CC[C@]2(CO)CC[C@]3(C)C(=CC[C@@H]4[C@@]5(C)CCCNC(C)(C)[C@@H]5CC[C@]43C)[C@H]12 = -39.7
COc1cc(COC(=O)CCCCC[P+](c2ccccc2)(c2ccccc2)c2ccccc2)c(OC)c2c1OCO2 = -23.1
O=C1Nc2c(ccc(Cl)c2Cl)/C1=C/c1ccc(O)cc1 = 78.6

Hey, quick one: what's growth for each of these?
1. COC(=O)C1=C(C(=O)ONCCN(C)C)C2C=CC1(C(Cc1ccccc1)Nc1ccc(F)cc1)O2 (centres undefined)
2. CC(=O)[C@@H]1CC[C@]2(C(=O)n3ccnc3)CC[C@]3(C)[C@H](CC[C@@H]4[C@@]5(C)Cc6c([nH]c7ccccc67)C(C)(C)[C@@H]5CC[C@]43C)[C@@H]12
3. CC(=O)c1c(-c2ccc(OC(F)(F)F)cc2)nc2ccccn12
4. COc1cc(/C=N/NC(=O)c2ccccc2Nc2cccc(C(F)(F)F)c2)ccc1O
5. COc1cnccc1-c1nc2ccc3[nH]ncc3c2c2c1CCCC2

Result:
[71.2, 72.7, 101, 78.3, 61.6]

Your task in this section: give growth for each listed record.
1. COc1ccc(/C=C/C(=O)c2ccc(Nc3ncnc4ccccc34)cc2)cc1OC
2. COc1cc(-c2cc(=O)oc3cc(O)ccc23)cc(OC)c1OC
3. O=C(Nc1nc2ccc(S(=O)(=O)Nc3ccc(C4(C(F)(F)F)CC4)cc3)cc2[nH]1)c1cnccn1
4. COc1cc2nc(-c3ccc(-c4nn[nH]n4)cc3)[nH]c(=O)c2cc1OC
5. Cc1ccccc1CNc1ccc(N2CCOCC2)cc1
6. C=C(C)[C@@H]1CC[C@]2(C(=O)N3CCN(C)CC3)CC[C@]3(C)[C@H](CC[C@@H]4[C@@]5(C)CCC(=O)C(C)(C)[C@@H]5CC[C@]43C)[C@@H]12
7. CCCCCN1C=C/C(=C\C(=O)N(C)c2cccc3ccccc23)c2ccccc21

Result:
-11.4
41.8
30.3
81.8
110
78.1
78.5

// each compound listed below needs its growth
1. Fc1ccc(-n2cc(COc3ncnc4sc5c(c34)CCCC5)nn2)cc1Cl
2. COc1ccc(C(=O)c2cc(C)c(OC)c(C)c2)c(OC)c1N(C(=O)C(Cl)Cl)C(=O)C(Cl)Cl
3. CCCC1C(C(=O)OCC)=C(N)Oc2cc(O)ccc21 (centres undefined)
4. O=C1c2ccccc2-c2c1c1c(NCCCO)nc3ccccc3c1n2Cc1ccccc1
5. S=c1[nH]cccc1-c1nnc2n1Nc1nc3ccc(Cl)cc3cc1CS2
6. Cc1nc2sc(C(=O)Nc3ccccc3)c(N)c2cc1C(=O)c1ccc(C(F)(F)F)cc1
7. COc1ccc2c(c1)OC1=C(C(=O)OC1)C2c1cc(OC)c(OC)c(OC)c1 (centres undefined)
8. COc1ccc(NC(=O)c2sc3nc(C)c(C(=O)CCc4cccc(OC)c4)cc3c2N)cc1

Result:
1: 96; 2: 19.9; 3: 98.5; 4: 46.2; 5: 98.1; 6: 102; 7: 11.5; 8: 45.7

Could I get growth for every one of these entries?
1. C(=C\c1n(Cc2ccc3ccccc3c2)c(-c2ccccc2)c(-c2ccccc2)[n+]1Cc1ccc2ccccc2c1)/c1ccccc1
2. CC(C)CN(C(=O)c1ccc(Cl)cc1)c1c(N)n(CC(C)C)c(=O)[nH]c1=O
3. COc1ccc(/C=N/NC(=O)c2cccc3cc[nH]c23)cc1O

Result:
1. -43.9
2. 84.8
3. -19.4

Lab book: growth of COc1ccc(C(O)c2cc3c(N)c(C(=O)Nc4ccccc4)sc3nc2C)cc1 (centres undefined) noted as 5.81
